Values compiled from patent US20240124857A1.

- procedure.details: pH profile of enzymes on 1 mM ATP
- Assay type: biochemical
- test.context: 50 mM trisodium citrate/citric acid, 5 mM CaCl2, relative to the highest value
- Protocol: The pH profile of additional enzymes of interest was assayed using 1 mM ATP, in 50 mM trisodium citrate/citric acid buffer with 5 mM CaCl2. Absorbance was read at 620 nm and all values were set relative to the highest one. Commercial potato apyrase was used as reference. […]
measurement.type: Relative activity on ATP, pH 3

INSERT INTO measurements (molecule, val) VALUES
  ('CRC25082: Acid phosphatase (Class A), accession WP_050460978.1, SEQ ID NO:19 (protein, listed as Herbaspirillum autotrophicum) KGAAGFLNGQTAPDSLAILPPPPAEDSVAFQADKAQYETGHVLRDPERVEQARQDADYRNFGHAFSAAFGMEISATHTPVLYQLLTEVLQDSHDYAMKAAKNHYKRVRPFVVYKDPTCTPGQDEKMALSGSYPSGHASFGWAAALVLAEINPARQTEILQRGYAFGKSRVICGAHWQSDVDNGQLMGAAVVAALHSNSQFAAALNAAKNEFAGLRAQDNKK', 0.0);
